Provide the reported % Annexin V/PI-positive cells, LNCaP, 10 µg/ml mAb of each item.
Molecular target: T1, human EpCAM (epithelial cell adhesion/activating molecule) (human, UniProt P16422 24-314)
T1 sequence: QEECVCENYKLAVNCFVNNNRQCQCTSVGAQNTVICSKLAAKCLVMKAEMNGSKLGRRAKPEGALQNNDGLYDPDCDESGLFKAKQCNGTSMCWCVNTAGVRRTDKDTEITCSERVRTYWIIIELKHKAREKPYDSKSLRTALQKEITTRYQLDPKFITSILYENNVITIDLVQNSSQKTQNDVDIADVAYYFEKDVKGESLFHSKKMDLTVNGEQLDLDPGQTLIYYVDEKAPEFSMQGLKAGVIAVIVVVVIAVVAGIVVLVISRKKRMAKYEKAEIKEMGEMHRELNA
Assay: cell-based or functional assay
Answers are plain numbers, in %.

Recorded results for 3 binders are shown here.
| BINDER | QUANTITATIVE READOUT |
| --- | --- |
| murine monoclonal antibody 6D11 (antibody, mouse IgG1, V domains shown, Mouse IgG1, kappa, from hybridoma; also called m338-6D11.8) VH: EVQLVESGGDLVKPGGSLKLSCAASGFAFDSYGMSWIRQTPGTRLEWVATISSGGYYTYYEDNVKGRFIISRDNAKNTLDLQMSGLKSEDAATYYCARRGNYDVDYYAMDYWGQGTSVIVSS VL: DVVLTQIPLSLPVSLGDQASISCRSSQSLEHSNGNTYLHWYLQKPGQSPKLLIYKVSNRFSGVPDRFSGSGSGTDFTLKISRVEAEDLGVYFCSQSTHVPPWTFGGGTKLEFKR | 44 |
| murine monoclonal antibody 2D11 (antibody, mouse IgG1, V domains shown, Mouse IgG1, kappa, from hybridoma; also called m322-2D11.19) VH: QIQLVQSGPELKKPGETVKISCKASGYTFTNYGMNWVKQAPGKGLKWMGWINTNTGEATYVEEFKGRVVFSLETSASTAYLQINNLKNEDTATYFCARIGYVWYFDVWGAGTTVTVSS VL: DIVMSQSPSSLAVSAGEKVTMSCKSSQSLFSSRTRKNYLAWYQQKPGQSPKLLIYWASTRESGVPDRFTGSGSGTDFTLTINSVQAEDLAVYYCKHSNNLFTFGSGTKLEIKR | 40 |
| murine monoclonal antibody 12H8 (antibody, mouse IgG2a, V domains shown, Mouse IgG2a, kappa, from hybridoma; also called m342-12H8.3; m12H8) VH: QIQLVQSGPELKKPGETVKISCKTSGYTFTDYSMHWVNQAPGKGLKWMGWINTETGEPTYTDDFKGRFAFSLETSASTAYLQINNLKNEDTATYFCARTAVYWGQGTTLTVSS VL: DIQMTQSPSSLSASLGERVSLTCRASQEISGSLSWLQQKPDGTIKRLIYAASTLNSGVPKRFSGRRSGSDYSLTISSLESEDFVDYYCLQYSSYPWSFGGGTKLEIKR | 58 |

Here is another binder to look at.
Prompt line: Which measured % Annexin V/PI-positive cells, LNCaP, 10 µg/ml mAb value corresponds to murine monoclonal antibody 4D2 (antibody, mouse IgG1, V domains shown, Mouse IgG1, kappa, from hybridoma; also called m338-4D2.20) VH: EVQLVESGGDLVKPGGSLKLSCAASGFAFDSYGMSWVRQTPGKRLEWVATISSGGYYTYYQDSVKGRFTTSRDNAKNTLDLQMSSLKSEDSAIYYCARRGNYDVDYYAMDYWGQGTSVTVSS VL: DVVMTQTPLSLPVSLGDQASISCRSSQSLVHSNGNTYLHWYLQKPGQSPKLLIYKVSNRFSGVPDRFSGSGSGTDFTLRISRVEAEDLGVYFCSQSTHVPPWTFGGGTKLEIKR ?
Response line: 50
